The reported measurements were obtained from paper PMC4414246.

studyTarget: dK50dM51 S48A (UniProt P09012 10-89, S48A;del50-51)
testName: fluorescence polarization
endpointLabel: Kd (µM)

>>> testvalue("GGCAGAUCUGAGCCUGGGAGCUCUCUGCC (structured_RNA) [TAR RNA]")
33.9
